Answer each item with its documented EC50.
target: Luciferin 4-monooxygenase (Photinus pyralis, UniProt P08659); assay: inhibition of purified Photinus pyralis luciferase – biochemical, luminescence, dose response (AID 1891)
Sequence (P08659 whole entry): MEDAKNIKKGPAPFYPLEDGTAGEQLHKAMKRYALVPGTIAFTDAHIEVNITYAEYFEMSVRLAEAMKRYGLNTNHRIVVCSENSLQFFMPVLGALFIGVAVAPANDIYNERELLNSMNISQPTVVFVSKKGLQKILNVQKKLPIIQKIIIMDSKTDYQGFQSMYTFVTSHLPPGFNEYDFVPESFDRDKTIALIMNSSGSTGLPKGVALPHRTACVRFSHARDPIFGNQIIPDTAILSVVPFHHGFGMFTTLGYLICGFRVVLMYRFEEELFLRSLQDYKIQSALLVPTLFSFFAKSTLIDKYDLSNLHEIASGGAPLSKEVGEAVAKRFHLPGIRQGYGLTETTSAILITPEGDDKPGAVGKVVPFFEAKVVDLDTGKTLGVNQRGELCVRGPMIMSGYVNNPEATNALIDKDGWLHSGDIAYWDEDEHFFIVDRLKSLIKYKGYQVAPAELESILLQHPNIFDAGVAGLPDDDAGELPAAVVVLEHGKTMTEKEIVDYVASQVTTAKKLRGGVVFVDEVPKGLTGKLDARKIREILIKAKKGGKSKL
The source made the active and inactive calls. Cut-off read from the data, not from the text of the source: actives have a measured EC50 and inactives only a lower limit.

[
  {
    "COMPOUND": "Cc1ccccc1N=C(S)c1ccc2ccccc2n1",
    "EC50": "> 112 µM (not active)"
  },
  {
    "COMPOUND": "COC(=O)c1c(-c2cccc3ccccc23)csc1NC(=O)Cc1ccc(OC)c(OC)c1",
    "EC50": "> 112 µM (not active)"
  },
  {
    "COMPOUND": "Cn1c(N/N=C/c2cc3ccccc3nc2Cl)nc2ccccc21",
    "EC50": "0.687 µM (active)"
  }
]

Hi, could you look up EC50 for each item in my list?
1. Cc1ccc(N2C(=O)CC(c3ccsc3)C3=C2CC(C)(C)CC3=O)cc1 (stereo not given)
2. COc1ccc(-c2nn(-c3ccccc3)cc2C(=O)O)cc1
3. Cc1ccc(NC(=O)c2sccc2C)nc1
4. Cc1nc2cc(NC(=O)Nc3cccc(F)c3)ccc2n1C

["> 112 µM (not active)", "> 112 µM (not active)", "13.9 µM (active)", "5.89 µM (active)"]

Hi, could you look up EC50 for each item in my list?
1. Nc1nc2sc3c(c2cc1C(=O)N1CCOCC1)CCCC3
2. CCOc1cccc(-c2c(C(=O)N/N=C/c3ccco3)nnn2-c2nonc2N)c1
3. O=C(CSc1nnc2ccccn12)NNC(=O)c1ccc([N+](=O)[O-])cc1
4. C/C(=N/N=C/c1ccc(N(C)C)cc1)c1ccccc1

> 112 µM (not active)
> 112 µM (not active)
> 112 µM (not active)
0.875 µM (active)

Hi, could you look up EC50 for each item in my list?
1. Oc1nccc(N/N=C/c2ccccc2O)n1
2. COc1ccc(NC(=O)CSc2c3c(nc4cc(Cl)ccc24)CCCC3)cc1OC
3. Cc1ccc(S(=O)(=O)N2CCCC2C(=O)O)cc1 (stereo not given)
4. Cc1ccsc1C(=O)Nc1nc2ccccc2[nH]1

["36.3 µM (active)", "> 112 µM (not active)", "> 112 µM (not active)", "2.67 µM (active)"]

====

system: Streptococcus; assay: GAS UMAA2166 growth inhibition – luminescence, BacTiterGlo, counter-screen for streptokinase expression inhibitor project, dose response (AID 1915); type: functional, organism-based;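 note: potency for reduction of bacterial viability or growth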
The source made the active and inactive calls. Cut-off read from the data, not from the text of the source: actives have a measured EC50 and inactives only a lower limit.
Answer each item with its documented EC50.

[
  {
    "MOLECULE": "Cc1nn(-c2ccccc2)c(Cl)c1/C=N/Nc1ccc(S(=O)(=O)Nc2ccccc2C(=O)O)cc1[N+](=O)[O-]",
    "TARGET UNDER TEST": "Streptococcus",
    "RESULT": "4.27 µM (active)"
  },
  {
    "MOLECULE": "Cc1cccc(Cn2nc(C(C)(C)C)cc2C(=O)Nc2ccc(F)cc2)c1",
    "TARGET UNDER TEST": "Streptococcus",
    "RESULT": "16.3 µM (active)"
  },
  {
    "MOLECULE": "Cc1ccc(CN2CN(S(=O)(=O)c3cccs3)c3nc4ccccc4nc32)cc1",
    "TARGET UNDER TEST": "Streptococcus",
    "RESULT": "63.7 µM (active)"
  },
  {
    "MOLECULE": "Cc1cccc(C)c1OCC(O)CN1CCC(CN2C(=O)c3cccc4cccc(c34)C2=O)CC1 (stereo not given)",
    "TARGET UNDER TEST": "Streptococcus",
    "RESULT": "16.7 µM (active)"
  }
]

Turning to the following molecule.
Value lookup for EC50; key = C/C(=C\C(=O)OCCCCCCCCC(=O)O)C[C@@H]1OC[C@H](C[C@@H]2O[C@H]2[C@@H](C)[C@H](C)O)[C@@H](O)[C@H]1O
< 0.06 µM (active)
